# Test system: PIK3CD
# CONDITION DETAILS: concentration: 1 μM,replicates: in singlicate; n = 1;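 further: KINOMEscan kinase panel screen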
Task for the reader: assign each of the following compounds its reported %Inh.
One number for each entry, in %.

Give the measured %Inh of `O=C(Nc1cccc(Oc2ccc3nccn3n2)c1)Nc1cccc(C(F)(F)F)c1` .
5

`NC(=O)c1ccc(-c2cc3ncnc(SCC(=O)O)c3s2)cc1` ?
0

`CNC(=O)c1ccccc1Nc1nc(Nc2cccc(CS(C)(=O)=O)c2)ncc1C.O=CO` ?
0

`CC(=O)Nc1ccc(-c2cc3ncnc(SCC(=O)O)c3s2)cc1` ?
5

`CN(c1cccc(CNc2nc(Nc3ccc4c(c3)CC(=O)N4)ncc2C(F)(F)F)c1)S(C)(=O)=O` ?
0

`COC(=O)c1cccc(NC(=O)NC2CCN(c3ccnc(NCc4ccc(F)cc4)n3)CC2)c1` ?
61

Okay, here is my list. What is %Inh for each of these?
1. O=c1[nH]cc(-c2ccc(O)cc2)c2sc(-c3ccncc3)cc12
2. Cc1cccc(-c2nc(Nc3ccncc3)c3sccc3n2)n1
3. O=C(Nc1ccccc1)c1cccc(Oc2ccc3nccn3n2)c1
4. Cc1ccc2c(-c3ccnc(Nc4ccc(C(F)(F)F)cc4)n3)cnn2n1
5. C[C@@H]1CNc2c(sc3ccc4nc(-c5ccncc5)ccc4c23)C(=O)N1
6. Cc1cccc2c(-c3ccncc3)c(-c3ccc(F)cc3)nn12.Cl
7. CC(C)c1nc(-c2cccc(NS(=O)(=O)c3ccccc3)c2)c(-c2ccnc(Nc3ccc4c(c3)CN(C)CC4)n2)s1

1: 39; 2: 46; 3: 11; 4: 0; 5: 0; 6: 0; 7: 25

Okay, here is my list. What is %Inh for each of these?
1. CN1CCN(CCCNc2nccc(-c3c(-c4ccc(F)cc4)nn4cc(C(N)=O)ccc34)n2)CC1
2. Cn1ccc2ncnc(Oc3ccc(NC(=O)Nc4cnn(C(C)(C)C)c4)c(Cl)c3)c21
3. CS(=O)(=O)c1cccc(CNc2nc(Nc3ccc4c(c3)[C@@H]3C[C@@H]4CNC3=O)ncc2C(F)(F)F)c1
4. COc1cccc(OC)c1C(=O)Nc1cccc(-c2nn3ccccc3c2-c2ccnc(Nc3cccc(F)c3)n2)c1

1: 0; 2: 14; 3: 0; 4: 1

Give the measured %Inh of `Cc1ccn2nc(-c3ccc(F)cc3)c(-c3ccncc3)c2c1.Cl` .
1

* * *

Task for the reader: assign each of the following compounds its reported %Inh.
# Tested on: FLT1
# CONDITION DETAILS: concentration: 1 μM,replicates: in singlicate; n = 1
Answers are plain numbers, in %.

// worked examples, %Inh included
Requested read-out %Inh, target or system FLT1, entry `CC(=O)Nc1ccc(-c2cc3ncnc(SCC(=O)O)c3s2)cc1`
5

COC(=O)c1cccc(NC(=O)NC2CCN(c3ccnc(NCc4ccc(F)cc4)n3)CC2)c1 [GSK1379860] ?
42

O=C(Nc1n[nH]c2cc(-c3ccco3)ccc12)C1CC1 [SB-737447] ?
0

Okay, here is my list. What is %Inh for each of these?
1. Cn1ccc2ncnc(Oc3ccc(NC(=O)Nc4ccnc(C(F)(F)F)c4)c(Cl)c3)c21
2. Cl.c1ccc(Oc2ccc(Nc3ccnc4cc(-c5ccc(CN6CCNCC6)o5)ccc34)cc2)nc1 [GW567142]
3. C[C@@H](Oc1cc(-n2cnc3ccc(-c4ccncc4)cc32)sc1C(N)=O)c1ccccc1Cl [GSK483724]
4. CCn1c(-c2nonc2N)nc2cncc(Br)c21 [SB-738004]
5. CN1CCN(CCNc2nc3cc(Oc4ccc(NC(=O)Nc5cc(C(F)(F)F)ccc5F)cc4)ccc3[nH]2)CC1.Cl.Cl [GW768504]

1: 94.5; 2: 8; 3: 35; 4: 21; 5: 90.7

Okay, here is my list. What is %Inh for each of these?
1. O=C(NCC1CC1)c1ccc(-c2cc(C(=O)NC3CC3)ccc2F)cc1 [GW810445]
2. Cl.Nc1n[nH]c2cc(-c3ccccn3)ccc12 [GSK2189892]
3. COC(=O)c1cccc(NC(=O)NC2CCN(c3ccnc(Nc4cc(OC)c(OC)c(OC)c4)n3)C2)c1 (stereo not drawn) [GSK1379767]
4. CCNCC(Cc1ccccc1)NC(=O)c1cc(Br)c(-c2ccnc3[nH]ccc23)s1.Cl.Cl (stereo not drawn) [GSK1383280]

0
19
13
54
